Target: E. coli DNA gyrase (Escherichia coli, UniProt P0AES4+P0AES6)
Construct: purchased Inspiralis, UK
Experiment: DNA gyrase supercoiling assay (E. coli)
Format: biochemical
Details: E. coli; conc. 100 μM; n/a = not active
Description: The above compounds were tested for the inhibition of the enzyme DNA gyrase in a gyrase supercoiling assay and for the inhibition of the enzyme topoisomerase IV in a decatenation assay, in both Gram positive and Gram negative bacteria, according to the following methods. […] Inhibitory activity was expressed as percent of inhibition versus the positive control. The supercoiled or decatenated DNA bands obtained as described in Example 1 were analysed as follows. […]
Measured Attribute: inhibition at 100 µM (%)

Molecule: O=c1cc(NCCCN2CCN(c3nccc4ccc(F)cc34)CC2)c2ccccc2o1
Measured Attribute: inhibition at 100 µM
Unit Of Measurement: %
Meas Value: 89
--
Molecule: O=c1cc(N[C@H]2C[C@H](N3CCN(c4nccc5ccccc45)CC3)C2)c2ccccc2o1
Measured Attribute: inhibition at 100 µM
Unit Of Measurement: %
Meas Value: 94
--
Molecule: O=c1cc(NCC(O)CN2CCN(c3nccc4ccccc34)CC2)c2ccccc2o1 (racemic)
Measured Attribute: inhibition at 100 µM
Unit Of Measurement: %
Meas Value: 81
--
Molecule: O=c1cc(NCCCN2CCN(c3nccc4cccnc34)CC2)c2ccccc2o1
Measured Attribute: inhibition at 100 µM
Unit Of Measurement: %
Meas Value: 92
--
Molecule: O=c1cc(NCCCN2CCN(c3nccc4ccc(Cl)cc34)CC2)c2ccccc2o1
Measured Attribute: inhibition at 100 µM
Unit Of Measurement: %
Meas Value: 100

---

Measured inhibition at 50 µM, listed per entry.
Target: S. aureus Topoisomerase IV (Staphylococcus aureus, UniProt P0C1S7+P0C1U9)
Construct: purchased Inspiralis, UK
Sequence (P0C1S7 whole entry): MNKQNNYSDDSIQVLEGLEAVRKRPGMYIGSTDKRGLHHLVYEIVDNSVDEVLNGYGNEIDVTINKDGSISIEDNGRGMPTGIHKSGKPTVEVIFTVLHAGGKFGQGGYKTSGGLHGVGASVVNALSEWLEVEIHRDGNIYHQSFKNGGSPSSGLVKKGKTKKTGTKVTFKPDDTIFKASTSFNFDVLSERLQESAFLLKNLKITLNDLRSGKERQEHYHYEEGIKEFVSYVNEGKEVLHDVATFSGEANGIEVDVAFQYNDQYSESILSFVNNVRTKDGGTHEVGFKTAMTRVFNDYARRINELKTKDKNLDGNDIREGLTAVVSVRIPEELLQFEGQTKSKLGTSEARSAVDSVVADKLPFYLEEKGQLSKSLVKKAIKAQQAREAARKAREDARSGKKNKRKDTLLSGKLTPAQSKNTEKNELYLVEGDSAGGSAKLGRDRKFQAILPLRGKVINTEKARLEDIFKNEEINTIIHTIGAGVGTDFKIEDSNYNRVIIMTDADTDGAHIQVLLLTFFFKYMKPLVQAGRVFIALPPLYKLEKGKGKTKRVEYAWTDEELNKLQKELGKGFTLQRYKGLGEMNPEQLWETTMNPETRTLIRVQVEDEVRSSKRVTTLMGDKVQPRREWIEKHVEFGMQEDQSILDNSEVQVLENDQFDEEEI
Sequence (P0C1U9 whole entry): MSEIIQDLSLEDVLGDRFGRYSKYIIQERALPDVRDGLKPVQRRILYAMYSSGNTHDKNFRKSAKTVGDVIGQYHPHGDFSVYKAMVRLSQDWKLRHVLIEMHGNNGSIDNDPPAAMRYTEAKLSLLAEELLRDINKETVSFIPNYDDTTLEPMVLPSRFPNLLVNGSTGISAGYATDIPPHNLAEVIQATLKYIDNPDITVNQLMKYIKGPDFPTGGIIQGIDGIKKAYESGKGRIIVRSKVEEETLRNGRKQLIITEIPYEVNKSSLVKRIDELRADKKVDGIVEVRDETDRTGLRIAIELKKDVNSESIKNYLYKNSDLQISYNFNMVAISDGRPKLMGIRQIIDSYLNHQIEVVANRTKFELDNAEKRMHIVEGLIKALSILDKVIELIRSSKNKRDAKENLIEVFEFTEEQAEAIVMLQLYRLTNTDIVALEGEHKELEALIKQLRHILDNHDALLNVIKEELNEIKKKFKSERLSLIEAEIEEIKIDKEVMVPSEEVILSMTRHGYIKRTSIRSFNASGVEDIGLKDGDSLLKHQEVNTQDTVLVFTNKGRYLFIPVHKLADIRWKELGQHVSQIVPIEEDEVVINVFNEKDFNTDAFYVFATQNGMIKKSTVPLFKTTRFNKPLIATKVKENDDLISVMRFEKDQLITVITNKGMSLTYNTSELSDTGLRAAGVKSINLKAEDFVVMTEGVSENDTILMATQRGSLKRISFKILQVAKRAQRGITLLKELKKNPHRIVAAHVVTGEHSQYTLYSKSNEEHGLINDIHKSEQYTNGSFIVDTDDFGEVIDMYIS
Test: Topoisomerase IV decatenation assay (S. aureus)
Format: biochemical
Details: read-out: % inhibition Topo IV
Structures can show the parent of a compound that is named as a salt.

Compound: O=c1oc2ccccc2c2[nH]c(C(O)CN3CCN(c4nccc5ccc(F)cc45)CC3)nc12 (stereo not shown) [Compound 152, hydrochloride]
inhibition at 50 µM: 88%
--
Compound: NC(CN1CCN(c2nccc3ccc(F)cc23)CC1)c1nc2c(=O)oc3ccccc3c2[nH]1 (stereo not shown) [Compound 158, hydrochloride]
inhibition at 50 µM: 100%
--
Compound: COc1ccc2cc(F)nc(N3CCN(CC(O)CNc4cc(=O)oc5ccc(F)cc45)CC3)c2c1 (stereo not shown)
inhibition at 50 µM: 100%
--
Compound: COc1cnc2ccnc(N3CCC(NCc4cc5c([nH]4)c(=O)oc4ccc(F)cc45)CC3)c2n1
inhibition at 50 µM: 100%

---

Target: S. aureus Topoisomerase IV (Staphylococcus aureus, UniProt P0C1S7+P0C1U9)
Construct: purchased Inspiralis, UK
Assay: Topoisomerase IV decatenation assay (S. aureus)
Assay type: biochemical

Compound: O=c1cc(NCCCN2CCN(c3nccc4ccc(F)cc34)CC2)c2ccccc2o1
IC50: 11800 nM

Compound: COc1ccc2ncc(C#N)c(N3CCC(NCc4cc5c([nH]4)c(=O)oc4ccc(F)cc45)CC3)c2n1
IC50: 100 nM

Compound: O=c1cc(NCCCN2CCN(c3nccc4ccccc34)CC2)c2ccccc2o1
IC50: 90000 nM

Compound: O=c1cc(NCC(O)CN2CCN(c3nccc4ccccc34)CC2)c2ccccc2o1 (racemic)
IC50: 18500 nM

Compound: COc1ccc2ncc(F)c(N3CCC(NCc4cc5c([nH]4)c(=O)oc4ccc(F)cc45)CC3)c2n1
IC50: 100 nM

Compound: O=c1oc2ccc(F)cc2c2cc(CNC3CCN(c4nccc5ncccc45)CC3)[nH]c12
IC50: 1370 nM

Compound: O=c1oc2ccccc2c2[nH]c(CNC3CCN(c4nccc5ccc(F)cc45)CC3)c(C(F)(F)F)c12
IC50: 2300 nM

Compound: COc1ccc2nccc(N3CCC(NCc4cc5c([nH]4)c(=O)oc4ccc(F)cc45)CC3)c2n1
IC50: 200 nM

---

Target: E. coli DNA gyrase (Escherichia coli, UniProt P0AES4+P0AES6)
Construct: purchased Inspiralis, UK
Assay: DNA gyrase supercoiling assay (E. coli)
Type: biochemical
pIC50: −log10 of the molar value. Where a name gives a salt, the structure may show the parent alone.
Measured Attribute: pIC50

Compound: O=c1nc(NCC(O)CN2CCN(c3nccc4ncc(F)cc34)CC2)c2cc(F)ccc2o1 (stereo not shown)
Measured Attribute: pIC50
Meas Value: 5.31

Compound: O=c1cc(NCCCN2CCN(c3nccc4ccccc34)CC2CO)c2ccccc2o1 (stereo not shown)
Measured Attribute: pIC50
Meas Value: 5.08

Compound: O=c1oc2ccccc2c2[nH]c(CNC3CCN(c4nccc5ccc(F)cc45)CC3)c(C(F)(F)F)c12
Measured Attribute: pIC50
Meas Value: 5.85

Compound: O=c1cc(NCC(O)CN2CCN(c3nccc4ncccc34)CC2)c2cc(F)ccc2o1 (stereo not shown)
Measured Attribute: pIC50
Meas Value: 6.82

Compound: O=c1nc(NCC(O)CN2CCN(c3nccc4ncc(C(F)(F)F)cc34)CC2)c2cc(F)ccc2o1 (stereo not shown)
Measured Attribute: pIC50
Meas Value: 5.36

Compound: NC(=O)C1CN(c2nccc3ccccc23)CCN1CCCNc1cc(=O)oc2ccccc12 (stereo not shown) [Compound 89, hydrochloride]
Measured Attribute: pIC50
Meas Value: 4.55

Compound: O=c1cc(NC2CCN(CCCc3nccc4ccccc34)CC2)c2ccccc2o1
Measured Attribute: pIC50
Meas Value: 5.22

Compound: NC(CN1CCN(c2nccc3ccc(F)cc23)CC1)c1nc2c(=O)oc3ccccc3c2[nH]1 (stereo not shown) [Compound 158, hydrochloride]
Measured Attribute: pIC50
Meas Value: 5.73

Compound: Fc1ccc2ccnc(N3CCN(CCNCc4cc5c(cn4)OCCC5)CC3)c2c1
Measured Attribute: pIC50
Meas Value: 4.77

Compound: O=c1cc(NCCCN2CCN(c3nccc4ccc(Cl)cc34)CC2)c2ccccc2o1
Measured Attribute: pIC50
Meas Value: 6.05

Compound: O=c1cc(NCCCN2CCN(c3nccc4ccc(F)cc34)CC2)c2ccccc2o1
Measured Attribute: pIC50
Meas Value: 6.10

Compound: O=CNC(CN1CCN(c2nccc3ccc(F)cc23)CC1)c1nc2c(=O)oc3ccccc3c2[nH]1 (stereo not shown) [Compound 159, hydrochloride]
Measured Attribute: pIC50
Meas Value: 5.78

Compound: O=c1nc(NCC(O)CN2CCN(c3nccc4nccnc34)CC2)c2cc(F)ccc2o1 (stereo not shown)
Measured Attribute: pIC50
Meas Value: 5.56

---

Biological target: E. coli DNA gyrase (Escherichia coli, UniProt P0AES4+P0AES6)
Construct: purchased Inspiralis, UK
Assay: DNA gyrase supercoiling assay (E. coli)
Assay type: biochemical
Experimental: The above compounds were tested for the inhibition of the enzyme DNA gyrase in a gyrase supercoiling assay and for the inhibition of the enzyme topoisomerase IV in a decatenation assay, in both Gram positive and Gram negative bacteria, according to the following methods. […] Inhibitory activity was expressed as percent of inhibition versus the positive control. The supercoiled or decatenated DNA bands obtained as described in Example 1 were analysed as follows. […]
pIC50: −log10 of the molar value. Where a name gives a salt, the structure may show the parent alone.
Measured Attribute: pIC50

Molecule: O=c1oc2ccc(F)cc2c2cc(CNC3CCN(c4nccc5nccnc45)CC3)[nH]c12
Meas Value: 6.10
--
Molecule: O=c1oc2ccccc2c2[nH]c(C(O)CN3CCN(c4nccc5ccc(F)cc45)CC3)nc12 (stereo not drawn) [Compound 152, hydrochloride]
Meas Value: 6.18
--
Molecule: O=c1cc(NCC(O)CN2CCN(c3nccc4ccccc34)CC2)c2ccccc2o1 (racemic)
Meas Value: 5.92

---

Target: S. aureus DNA gyrase (Staphylococcus aureus, UniProt P0A0K8+P20831)
Construct: purchased Inspiralis, UK
Sequence (P0A0K8 whole entry): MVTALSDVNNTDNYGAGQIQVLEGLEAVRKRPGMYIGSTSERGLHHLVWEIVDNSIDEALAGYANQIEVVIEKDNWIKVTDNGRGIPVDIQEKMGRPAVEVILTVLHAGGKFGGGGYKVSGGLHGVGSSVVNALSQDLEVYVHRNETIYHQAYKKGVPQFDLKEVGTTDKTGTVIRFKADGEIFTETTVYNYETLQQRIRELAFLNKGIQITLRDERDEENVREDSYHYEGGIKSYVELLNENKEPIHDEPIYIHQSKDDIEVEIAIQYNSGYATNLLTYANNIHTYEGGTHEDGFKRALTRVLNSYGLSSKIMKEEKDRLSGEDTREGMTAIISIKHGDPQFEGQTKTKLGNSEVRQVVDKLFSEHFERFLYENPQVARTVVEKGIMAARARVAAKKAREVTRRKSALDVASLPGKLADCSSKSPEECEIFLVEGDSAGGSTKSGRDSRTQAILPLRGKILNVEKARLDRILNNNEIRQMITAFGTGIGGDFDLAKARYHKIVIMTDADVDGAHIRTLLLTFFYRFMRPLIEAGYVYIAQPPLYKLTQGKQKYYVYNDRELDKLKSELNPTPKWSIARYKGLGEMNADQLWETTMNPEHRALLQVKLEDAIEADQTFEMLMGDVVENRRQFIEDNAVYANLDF
Sequence (P20831 whole entry): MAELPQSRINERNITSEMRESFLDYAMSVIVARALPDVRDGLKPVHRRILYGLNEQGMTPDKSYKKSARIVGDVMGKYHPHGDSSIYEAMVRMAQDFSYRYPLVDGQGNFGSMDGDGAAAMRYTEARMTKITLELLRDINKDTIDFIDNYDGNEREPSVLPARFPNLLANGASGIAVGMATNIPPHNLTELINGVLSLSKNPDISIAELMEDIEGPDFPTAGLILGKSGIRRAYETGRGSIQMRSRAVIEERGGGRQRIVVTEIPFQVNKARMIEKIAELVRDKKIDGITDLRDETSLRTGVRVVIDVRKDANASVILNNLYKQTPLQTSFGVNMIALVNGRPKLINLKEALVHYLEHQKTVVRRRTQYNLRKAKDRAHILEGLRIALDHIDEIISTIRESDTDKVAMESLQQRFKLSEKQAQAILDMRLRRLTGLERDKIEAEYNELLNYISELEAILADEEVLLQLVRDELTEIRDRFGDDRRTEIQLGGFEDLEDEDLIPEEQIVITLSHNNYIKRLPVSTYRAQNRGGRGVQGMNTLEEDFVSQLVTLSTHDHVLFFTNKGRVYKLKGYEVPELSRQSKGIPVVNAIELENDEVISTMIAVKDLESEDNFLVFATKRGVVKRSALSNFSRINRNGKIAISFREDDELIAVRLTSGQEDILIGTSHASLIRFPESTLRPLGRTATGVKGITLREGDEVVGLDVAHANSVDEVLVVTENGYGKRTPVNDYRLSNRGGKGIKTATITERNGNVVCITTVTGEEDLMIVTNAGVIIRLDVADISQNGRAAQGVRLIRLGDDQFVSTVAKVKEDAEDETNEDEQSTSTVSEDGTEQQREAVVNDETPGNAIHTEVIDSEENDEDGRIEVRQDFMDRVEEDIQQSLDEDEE
Assay: DNA gyrase supercoiling assay (S. aureus)
Type: biochemical
Description: The above compounds were tested for the inhibition of the enzyme DNA gyrase in a gyrase supercoiling assay and for the inhibition of the enzyme topoisomerase IV in a decatenation assay, in both Gram positive and Gram negative bacteria, according to the following methods. […] Inhibitory activity was expressed as percent of inhibition versus the positive control. The supercoiled or decatenated DNA bands obtained as described in Example 1 were analysed as follows. […]
pIC50: −log10 of the molar value. Where a name gives a salt, the structure may show the parent alone.
Measured Attribute: pIC50

Compound: Fc1ccc2ccnc(N3CCN(CCNCc4cc5c(cn4)OCCC5)CC3)c2c1
Meas Value: 5.99
--
Compound: O=c1nc(NCC(O)CN2CCN(c3nc(F)cc4ccc(OC(F)(F)F)cc34)CC2)c2cc(F)ccc2o1 (stereo not drawn)
Meas Value: 5.06
--
Compound: NC(CN1CCN(c2nccc3ccc(F)cc23)CC1)c1nc2c(=O)oc3ccccc3c2[nH]1 (stereo not drawn) [Compound 158, hydrochloride]
Meas Value: 6.07
--
Compound: O=c1cc(CC(O)CCN2CCN(c3nccc4ccc(F)cc34)CC2)c2ccccc2o1 (stereo not drawn)
Meas Value: 6.09
--
Compound: O=c1cc(NCCCN2CCN(c3nccc4ccccc34)CC2CO)c2ccccc2o1 (stereo not drawn)
Meas Value: 5.03
--
Compound: O=c1cc(NCC(O)CN2CCN(c3nccc4ncccc34)CC2)c2cc(F)ccc2o1 (stereo not drawn)
Meas Value: 5.95
--
Compound: C[N+]1(CCCNc2cc(=O)oc3ccccc23)CCN(c2nccc3ccccc23)CC1
Meas Value: 5.05
--
Compound: O=c1cc(NCCCN2CCN(c3nccc4cccnc34)CC2)c2ccccc2o1
Meas Value: 5.06
--
Compound: O=c1nc(NCC(O)CN2CCN(c3nccc4ncc(F)cc34)CC2)c2cc(F)ccc2o1 (stereo not drawn)
Meas Value: 6.06
